- Experimental target: HDAC2 Human recombinant C-terminal FLAG-tag (Homo sapiens)
- Construct: FLAG (C); purchased BPS Bioscience 50052
- Sequence (Q92769 whole entry): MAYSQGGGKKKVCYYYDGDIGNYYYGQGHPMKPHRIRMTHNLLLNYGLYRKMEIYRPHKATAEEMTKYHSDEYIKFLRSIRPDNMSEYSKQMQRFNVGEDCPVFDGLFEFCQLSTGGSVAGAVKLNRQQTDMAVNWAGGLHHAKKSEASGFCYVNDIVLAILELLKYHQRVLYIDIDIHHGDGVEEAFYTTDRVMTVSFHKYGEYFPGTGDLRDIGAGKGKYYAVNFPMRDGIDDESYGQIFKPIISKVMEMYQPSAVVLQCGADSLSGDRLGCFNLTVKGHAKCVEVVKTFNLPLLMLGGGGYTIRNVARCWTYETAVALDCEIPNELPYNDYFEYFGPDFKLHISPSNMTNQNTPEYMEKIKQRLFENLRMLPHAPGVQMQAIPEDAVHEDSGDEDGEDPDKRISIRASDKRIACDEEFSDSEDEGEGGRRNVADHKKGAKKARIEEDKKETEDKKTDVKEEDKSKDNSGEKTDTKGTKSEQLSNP
- Test method notes: Measurement of HDAC2 enzyme inhibitory activity (HTRF)
- Assay type: biochemical
- Condition: recombinant HDAC2, H3K9ac peptide, 3 hours room temperature; read-out: HDAC2 IC50
Parameter: pIC50. Scope: all listed entries.
Worth noting: pIC50 values are minus log10 of concentrations stated in mol/L.

Sample records with pIC50:
COc1cnc(C(=O)Nc2cc(-c3ccc(F)nc3)ccc2N)nc1 = 6.47
Nc1ccc(-c2cncs2)cc1NC(=O)c1ccc(C(F)(F)F)cn1 = 6.59
Nc1ccc(-c2ccc(F)nc2)cc1NC(=O)c1ccc(CN2CCCC2=O)cn1 = 7.07
Nc1ccc(-c2ccc(F)nc2)cc1NC(=O)c1ccc(Cl)cn1 = 6.54
Nc1ccc(-c2cncs2)cc1NC(=O)c1cnc2[nH]ccc2n1 = 7.02
Nc1ccc(-c2ccc(F)nc2)cc1NC(=O)c1ccc(OC(F)F)cn1 = 6.41

API: the following record is the query input.
Request: Quick one: give measured pIC50 for Nc1ccc(-c2ccc(F)nc2)cc1NC(=O)c1ccc(C2CC2)cn1
Response: 6.82
